Experiment: Selectivity index, ratio of CC50 for cytotoxicity against mouse splenocyte to IC50 for immunosuppressive activity in mouse splenocyte assessed as reduction in ConA-induced mouse T-cell proliferation
Conditions: mouse splenocytes, read-out: Ratio CC50/IC50
Attribute: selectivity ratio

For `COc1c2c(c(C=O)c3c1C(=O)OC3)O[C@]1(C)CC[C@H]3C(C)(C)[C@H](O)CC[C@]3(C)[C@H]1C2` the compound record lists selectivity ratio as 2.2

---
For `COc1c2c(c(C=O)c3c1C(=O)OC3)O[C@]1(C)CC[C@@]3(O)[C@@](C)(C(=O)O)CCC[C@]3(C)[C@H]1C2` the compound record lists selectivity ratio as > 1.4

For `COc1c2c(c(C=O)c3c1C(=O)OC3)O[C@]1(C)[C@H](O)C[C@@]3(O)C(C)(C)CCC[C@]3(C)[C@H]1C2` the compound record lists selectivity ratio as > 1

For `COc1c2c(c(C=O)c3c1C(=O)OC3)O[C@]1(C)CC[C@@]3(O)[C@@](C)(COC(C)=O)CCC[C@]3(C)[C@H]1C2` the compound record lists selectivity ratio as > 1.4

For `COc1c2c(c(C=O)c3c1C(=O)OC3)O[C@]1(C)CC[C@H]3C(C)(C)[C@@H](O)CC[C@]3(C)[C@H]1C2` the compound record lists selectivity ratio as > 1.4

For `COc1c2c(c(C=O)c3c1C(=O)OC3)O[C@]1(C)CC[C@@]3(O)[C@@](C)(C=O)CCC[C@]3(C)[C@H]1C2` the compound record lists selectivity ratio as 1.2

For `COc1c2c(c(C=O)c3c1C(=O)OC3)O[C@]1(C)CC[C@@]3(O)[C@@](C)(CO)CCC[C@]3(C)[C@H]1C2` the compound record lists selectivity ratio as > 2

For `COc1c2c(c(C=O)c3c1C(=O)OC3)O[C@]1(C)CC[C@@]3(O)C(C)(C)[C@@H](O)CC[C@]3(C)[C@H]1C2` the compound record lists selectivity ratio as > 1.7

For `COc1c2c(c(C=O)c3c1C(=O)OC3)O[C@]1(C)CC[C@@]3(O)C(C)(C)CCC[C@]3(C)[C@H]1C2` the compound record lists selectivity ratio as 1.1

---

Attribute: CC50
Test: Cytotoxicity against mouse splenocyte by MTT assay
Type: toxicity, cell-based
Conditions: mouse splenocytes

For `COc1c2c(c(C=O)c3c1C(=O)OC3)O[C@]1(C)CC[C@@]3(O)C(C)(C)CC[C@@H](O)[C@]3(C)[C@H]1C2` the molecule record lists CC50 as > 50 µM

For `COc1c2c(c(C=O)c3c1C(=O)OC3)O[C@]1(C)CC[C@H]3C(C)(C)[C@@H](O)CC[C@]3(C)[C@H]1C2` the molecule record lists CC50 as > 50 µM

For `COc1c2c(c(C=O)c3c1C(=O)OC3)O[C@]1(C)CC[C@@]3(O)[C@@](C)(COC(C)=O)CCC[C@]3(C)[C@H]1C2` the molecule record lists CC50 as > 40 µM

---
For `COc1c2c(c(C=O)c3c1C(=O)OC3)O[C@]1(C)CC[C@@]3(O)[C@@](C)(C=O)CCC[C@]3(C)[C@H]1C2` the molecule record lists CC50 as 43 µM

For `COc1c2c(c(C=O)c3c1C(=O)OC3)O[C@]1(C)CC[C@@]3(O)[C@@](C)(C(=O)O)CCC[C@]3(C)[C@H]1C2` the molecule record lists CC50 as > 50 µM

---

Tested on: HeLa
Assay: Cytotoxicity against human HeLa cells by MTT assay
Assay type: functional, cell-based
Endpoint name: IC50 (µM)
The reply should be a number in µM, with the unit left off.

// assay HeLa, entry `COc1c2c(c(C=O)c3c1C(=O)OC3)O[C@]1(C)CC[C@H]3C(C)(C)[C@@H](O)CC[C@]3(C)[C@H]1C2` , IC50 value = 9.6

---

Assay: Selectivity index, ratio of CC50 for cytotoxicity against mouse splenocyte to IC50 for immunosuppressive activity in mouse splenocyte assessed as reduction in LPS-induced mouse B-cell proliferation
Conditions: mouse splenocytes, read-out: Ratio CC50/IC50
Attribute: selectivity ratio
Answer as a number with no unit attached.

For `COc1c2c(c(C=O)c3c1C(=O)OC3)O[C@]1(C)CC[C@H]3C(C)(C)[C@H](O)CC[C@]3(C)[C@H]1C2` the compound record lists selectivity ratio as 3.6

---
For `COc1c2c(c(C=O)c3c1C(=O)OC3)O[C@]1(C)[C@H](O)C[C@@]3(O)C(C)(C)CCC[C@]3(C)[C@H]1C2` the compound record lists selectivity ratio as 2.7

For `COc1c2c(c(C=O)c3c1C(=O)OC3)O[C@]1(C)CC[C@@]3(O)[C@@](C)(C=O)CCC[C@]3(C)[C@H]1C2` the compound record lists selectivity ratio as 1.1

---

Test: Cytotoxicity against mouse splenocyte by MTT assay
Type: toxicity, cell-based
Settings: mouse splenocytes
Endpoint name: CC50

Please review the entries below; each comes with its answer.
For `COc1c2c(c(C=O)c3c1C(=O)OC3)O[C@]1(C)CC[C@@]3(O)C(C)(C)[C@H](O)CC[C@]3(C)[C@H]1C2` the compound record lists CC50 as > 50 µM

For `COc1c2c(c(C=O)c3c1C(=O)OC3)O[C@]1(C)[C@H](O)C[C@@]3(O)C(C)(C)CCC[C@]3(C)[C@H]1C2` the compound record lists CC50 as 23 µM

---
For `COc1c2c(c(C=O)c3c1C(=O)OC3)O[C@]1(C)CC[C@@]3(O)C(C)(C)CCC[C@]3(C)[C@H]1C2` the compound record lists CC50 as > 50 µM

---

Attribute: selectivity ratio
Experiment: Selectivity index, ratio of CC50 for cytotoxicity against mouse splenocyte to IC50 for immunosuppressive activity in mouse splenocyte assessed as reduction in LPS-induced mouse B-cell proliferation
Settings: mouse splenocytes, read-out: Ratio CC50/IC50

For `COc1c2c(c(C=O)c3c1C(=O)OC3)O[C@]1(C)CC[C@@]3(O)C(C)(C)CC[C@@H](O)[C@]3(C)[C@H]1C2` the compound record lists selectivity ratio as > 1.6

For `COc1c2c(c(C=O)c3c1C(=O)OC3)O[C@]1(C)CC[C@@]3(O)C(C)(C)CCC[C@]3(C)[C@H]1C2` the compound record lists selectivity ratio as > 13

Now for another entry.
For `COc1c2c(c(C=O)c3c1C(=O)OC3)O[C@]1(C)CC[C@@]3(O)[C@@](C)(COC(C)=O)CCC[C@]3(C)[C@H]1C2` the compound record lists selectivity ratio as > 2.3
